The following compounds are shown together with reported MIC values.
Tested on: MRSA-2 (clinical isolate)
procedure-text: MIC broth microdilution, MRSA-2
Type: cell-based, Staphylococcus aureus
condition-summary: Staphylococcus aureus, MRSA; overnight incubation, Mueller-Hinton broth; read-out: MIC MRSA-2 (clinical isolate)
Answer with a number only, understood to be in µg/mL.

FC(F)(F)c1ccc(N/N=C2\C=C[C@@]3(CC2)CC[C@@H]2NCCc4c2n3c2ccc(OCc3ccccc3)cc42)cc1 [Compound 1l]; 3.12
O=[N+]([O-])c1ccc(N/N=C2\C=C[C@@]3(CC2)CC[C@@H]2NCCc4c2n3c2ccccc42)cc1 [Compound 1d]; 3.12

// MIC lookup, compound = Fc1ccc2c3c4n(c2c1)[C@@]1(C=C/C(=N\Nc2ccc(C(F)(F)F)cc2)CC1)CC[C@@H]4NCC3 [Compound 1g] , result: 1.56

// MIC lookup, compound = COC(=O)[C@@H]1Cc2c3n(c4ccccc24)[C@@]2(C=C/C(=N\Nc4ccc(C(F)(F)F)cc4)CC2)CC[C@@H]3N1 [Compound 1m] , result: 3.12

// MIC lookup, compound = FC(F)(F)c1ccc(N/N=C2\C=C[C@@]3(CC2)CC[C@@H]2NCCc4c2n3c2ccccc42)cc1 (racemic) [Compound 1e] , result: 1.56
